# Tested on: E. coli AG100
# assay_protocol: microbe, parasite or virus in culture
# Format: cell-based
# reported_conditions: Escherichia coli, AG100, read-out: MIC E. coli AG100
Reported MIC values are given for each entry in this list.

| compound | target_or_test_system | MIC |
| --- | --- | --- |
| CCC(=O)NC(C(=O)N[C@H]1Cc2cccc(C(=O)O)c2OB1O)c1ccc(P(=O)(O)O)cc1 (stereo partly shown) [Example 27] | E. coli AG100 | > 128 µg/mL |
| CS(=O)(=O)N1CCC[C@H]1C(=O)N[C@@H](C(=O)N[C@H]1Cc2cccc(C(=O)O)c2OB1O)c1ccc(P(=O)(O)O)cc1 [Example 44] | E. coli AG100 | > 128 µg/mL |
| O=C(O)c1cccc2c1OB(O)[C@@H](NC(=O)C(NC(=O)c1cnc[nH]c1=O)c1ccc(P(=O)(O)O)cc1)C2 (stereo partly shown) [Example 176] | E. coli AG100 | > 128 µg/mL |
| CCN1CCN(C(=O)NC(C(=O)N[C@H]2Cc3cccc(C(=O)O)c3OB2O)c2cc(P(=O)(O)O)ccc2F)C(=O)C1=O (stereo partly shown) [Example 2] | E. coli AG100 | 32 to 64 µg/mL |
